Biological target: T1, human TIGIT over-expressed on cells (human, UniProt Q495A1 22-244)
T1 construct: also called CHO-K1/human TIGIT cells; CHO cells expressing human TIGIT
T1 sequence: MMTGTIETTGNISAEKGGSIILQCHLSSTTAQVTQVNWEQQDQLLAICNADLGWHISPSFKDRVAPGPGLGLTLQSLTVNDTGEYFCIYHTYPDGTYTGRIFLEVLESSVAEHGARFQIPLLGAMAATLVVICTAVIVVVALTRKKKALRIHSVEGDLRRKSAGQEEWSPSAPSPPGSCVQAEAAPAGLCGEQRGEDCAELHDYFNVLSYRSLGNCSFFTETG
Experiment: competition FACS, CHO cells expressing human TIGIT; competitor PVR recombinant protein (column headed EC50, text says IC50)
Catalogue of IC50 readings, one per entry.
The response must be a number in pM with no trailing unit.

Solved cases below.
{"binder": "100C4E7D11VH1_VL1 (antibody, V domains shown, Humanized antibody, variable domains fused with the constant region of human IgG1; also called 100C4VH1_VL1) VH: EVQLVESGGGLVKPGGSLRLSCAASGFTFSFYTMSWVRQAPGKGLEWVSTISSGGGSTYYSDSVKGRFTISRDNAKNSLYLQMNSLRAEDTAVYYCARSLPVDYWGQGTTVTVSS VL: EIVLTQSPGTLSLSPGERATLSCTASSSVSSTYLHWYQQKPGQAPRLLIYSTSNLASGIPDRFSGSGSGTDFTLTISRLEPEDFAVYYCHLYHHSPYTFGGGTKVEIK", "display-unit": "pM", "IC50": 1290}
{"binder": "64G1E9B4VH1_VL1.M1 (antibody, human IgG1, V domains shown, Humanized antibody, variable domains fused with the constant region of human IgG1; also called 64G1VH1_VL1.M1) VH: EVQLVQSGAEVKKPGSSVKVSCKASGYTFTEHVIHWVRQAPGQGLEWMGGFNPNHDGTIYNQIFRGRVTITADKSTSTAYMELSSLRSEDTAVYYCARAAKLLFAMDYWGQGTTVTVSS VL: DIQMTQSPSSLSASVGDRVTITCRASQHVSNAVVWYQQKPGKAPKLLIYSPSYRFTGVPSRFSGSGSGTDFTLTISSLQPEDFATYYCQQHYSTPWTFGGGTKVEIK", "display-unit": "pM", "IC50": 790}

// next item, IC50 requested
# input binder: 100C4E7D11 chimeric (antibody, V domains shown, also called 100C4 Chimeric) VH: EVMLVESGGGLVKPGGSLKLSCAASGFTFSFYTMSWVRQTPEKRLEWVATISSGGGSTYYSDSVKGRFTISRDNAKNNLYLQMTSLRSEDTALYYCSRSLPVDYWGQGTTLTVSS VL: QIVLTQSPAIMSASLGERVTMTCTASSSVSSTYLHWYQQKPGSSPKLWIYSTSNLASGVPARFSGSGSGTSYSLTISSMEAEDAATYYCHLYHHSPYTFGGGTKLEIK ; wanted: its IC50
490
